Biological target: T1, human growth hormone secretagogue related receptor (GHSR-R) (human, UniProt Q9HB89 24-426)
T1 construct: also called human GHSR-R; FM-3
T1 sequence: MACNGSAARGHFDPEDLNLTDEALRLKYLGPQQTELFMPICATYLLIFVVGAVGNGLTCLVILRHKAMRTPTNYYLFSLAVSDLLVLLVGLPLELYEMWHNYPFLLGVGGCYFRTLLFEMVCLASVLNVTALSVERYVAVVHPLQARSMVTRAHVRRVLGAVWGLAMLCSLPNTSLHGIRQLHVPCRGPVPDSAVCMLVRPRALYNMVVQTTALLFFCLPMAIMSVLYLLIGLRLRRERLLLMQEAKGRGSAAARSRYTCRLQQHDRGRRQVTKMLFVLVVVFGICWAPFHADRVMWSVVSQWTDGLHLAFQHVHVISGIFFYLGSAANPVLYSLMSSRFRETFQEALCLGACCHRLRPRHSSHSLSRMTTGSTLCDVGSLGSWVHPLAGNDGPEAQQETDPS
Assay: radioligand competition against 0.1 nM 125I-labeled rat NMU on membranes of HEK-293/aeq17 cells stably expressing human GHSR-R, filtration
pIC50: −log10 of the molar value. Ends that are not written are not given here.
Experimental readout: pIC50

Binder | Experimental result
YKVNEYQGPVAPSGGFFLFRPRN-NH2 (peptide, UniProt P12760 144-166, looked up, mature; also called unlabeled rat neuromedin U-25; Neuromedin U-25 (rat)) [rat neuromedin U-23 (rat NMU-23)] | 8.48
